- ASSAY METHOD TEXT: qHTS assay for small molecule agonists of the antioxidant response element (ARE) signaling pathway - cell viability counter screen (AID 743203); also: nearly all actives have a fitted effect of over 55% in size
- EXPERIMENTAL CONTEXT: ARE-bla HepG2 viability, CellTiter-Glo luminescence, 16 h; series mostly up to 73.3 µM
Results filed as inconclusive are left out. The source made the active and inactive calls. Calls follow the shape of the full dose curve.
Could you please pick one outcome from this set? active, inactive

STRUCTURE	CATEGORY LABEL
OC[C@H]1O[C@H](O[C@H]2O[C@H](CO)[C@@H](O)[C@H](O)[C@H]2O)[C@H](O)[C@@H](O)[C@@H]1O	inactive
Oc1c(I)cc(Cl)c2cccnc12	active
CCCCCCCCCCCCCC[N+](C)(C)Cc1ccccc1	active

Exercise: Record request — test call for `COC(C)=O`
Key: inactive

Exercise: // outcome(item) with item = `Cc1cc(-c2ccc(N=Nc3cc(S(=O)(=O)O)c4ccccc4c3N)c(C)c2)ccc1N=Nc1cc(S(=O)(=O)O)c2ccccc2c1N`
Key: inactive

Exercise: Tell me the recorded outcome of this test for `[Cu+]` .
Key: inactive

Exercise: Assay result, entry `C[Si](Cl)(c1ccccc1)c1ccccc1` — outcome?
Key: inactive

* * *

- ASSAY METHOD TEXT: A CellTox Green Cytotoxicity Assay to monitor cytotoxicity in HepG2 cells - 40 hour (AID 1224879); also: nearly all actives have a fitted effect of over 40% in size
- EXPERIMENTAL CONTEXT: CellTox Green fluorescence; series mostly up to 76.8 µM
Results filed as inconclusive are left out. The source made the active and inactive calls. Calls come from the whole dose curve; as a rule, active = well fitted activation curve with a large enough effect in the repeat runs; inconclusive = weak or mixed curves; inactive = flat fitted curve, though single readings scatter.
Pick one: active, inactive

STRUCTURE	CATEGORY LABEL
CCC(=O)OC(=O)CC	inactive

Exercise: State the result this test recorded for `C[Si](Cl)(c1ccccc1)c1ccccc1` .
Key: inactive

Exercise: Outcome logged for `O=C(O)[C@H](O)[C@@H](O)[C@H](O[C@@H]1O[C@H](CO)[C@H](O)[C@H](O)[C@H]1O)[C@H](O)CO` in this assay:
Key: inactive

Exercise: Per the assay record, what outcome was assigned to `COc1cc2nc(N3CCN(C(=O)c4ccco4)CC3)nc(N)c2cc1OC` ?
Key: active

Exercise: I would be grateful if you could indicate the recorded call for `Cc1cc(-c2ccc(N=Nc3cc(S(=O)(=O)O)c4ccccc4c3N)c(C)c2)ccc1N=Nc1cc(S(=O)(=O)O)c2ccccc2c1N` .
Key: inactive

* * *

activity change, negative = cytotoxic overview
- ASSAY METHOD TEXT: qHTS RealTime-Glo MT Cell Viability Assay in HepG2 cells - 40 hour (AID 1224870); also: % is scaled to controls: 0 for no effect and ±100 for the full control effect; nearly all actives have a fitted effect of over 50% in size
- EXPERIMENTAL CONTEXT: RealTime-Glo luminescence; series mostly up to 76.8 µM
Inconclusive results are not listed. The source made the active and inactive calls. Calls follow the shape of the dose curve; as a rule, active = well fitted cell-killing curve with a large enough effect in the repeat runs; inconclusive = weak or mixed curves, or effect the other way; inactive = flat fitted curve, though single readings scatter.

`O=C(O)CN(CCN(CC(=O)O)CC(=O)O)CC(=O)O` yielded activity change, negative = cytotoxic of 12.4% [at 2.72 µM] (inactive)

Just so you know, measured activity change, negative = cytotoxic for `CC(C)(C)CC(C)(C)c1ccc(Nc2ccc(C(C)(C)CC(C)(C)C)cc2)cc1` came out at -1.04% [at 6.97 µM] (inactive)

Reported activity change, negative = cytotoxic of `O=C(O)O` : 19% [at 6.97 µM] (inactive)

Lab note: `C[C@@H](O)[C@H](N)C(=O)O` gave activity change, negative = cytotoxic of -3.3% [at 15.8 µM] (inactive)

activity change, negative = cytotoxic reading for `CC(C)Cn1cnc2c(N)nc3ccccc3c21` : 1.75% [at 15.8 µM] (inactive)
